target: rTdLTP2 (Triticum turgidum); construct: mature protein expressed from pPICZalphaA in Pichia pastoris, non-tagged, gel filtration and RP-HPLC; test: hydrophobic ELISA plate coated with lipid, anti-LTP detection, one-site fit
Sequence (A0A446PDN1 entry or part of it): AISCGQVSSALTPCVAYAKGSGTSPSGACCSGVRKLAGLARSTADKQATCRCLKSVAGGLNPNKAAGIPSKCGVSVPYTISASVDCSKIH
pKd: −log10 of the molar value.
REPORTED_METRIC: pKd

Below are worked cases with known answers.
- MOLECULE: "CC[C@H](CC[C@@H](C)[C@H]1CC[C@H]2[C@@H]3CC=C4C[C@@H](O)CC[C@]4(C)[C@H]3CC[C@]12C)C(C)C [B-sitosterol]"
  pKd: 6.52
- MOLECULE: "CCCCCCCCCCCCCCCCCC(=O)O [stearic acid]"
  pKd: 6.33
- MOLECULE: "CCCCCCCC/C=C\\CCCCCCCC(=O)O [oleic acid]"
  pKd: 6.52

(P) CCCCCCCCCCCCCCCC(=O)O [Palmitic acid]
(Q) CCCCC/C=C\C/C=C\CCCCCCCC(=O)O [linoleic acid]
[Q] // pick larger pKd from pair: P vs Q State the label of the item chosen.
[A] P
(P: 6.51, Q: 6.23)
